System: velvetleaf
Assay: Test B pre-/postemergence herbicide test
Format: in vivo, Abutilon theophrasti
Conditions: 125 g ai/ha; 0 = no effect, 100 = complete control; preemergence
Assignment: determine reported Velvetleaf plant response rating (0 to 100 scale) for the given compounds.
Respond using a number only.

Notebook: pull reported Velvetleaf plant response rating (0 to 100 scale) for velvetleaf, entry `CC(=O)c1cccc(NC(=O)c2cn(C(C)C)nc2C)c1`
0

Notebook: pull reported Velvetleaf plant response rating (0 to 100 scale) for velvetleaf, entry `CCN(CC)C(=O)c1cccc(NC(=O)c2cn(C(C)(C)C)nc2C)c1`
10

Notebook: pull reported Velvetleaf plant response rating (0 to 100 scale) for velvetleaf, entry `CCn1nc(C(C)(C)C)cc1C(=O)Nc1cc(C(=O)N2CCOCC2)ccc1F`
40

Notebook: pull reported Velvetleaf plant response rating (0 to 100 scale) for velvetleaf, entry `CCc1cn(C(C)(C)C)nc1C(=O)Nc1cc(C(=O)N(C)CC)ccn1`
10

Notebook: pull reported Velvetleaf plant response rating (0 to 100 scale) for velvetleaf, entry `CCn1nc(C(C)(C)C)cc1C(=O)Nc1nc(C(=O)N(C)C)ccc1F`
0

Notebook: pull reported Velvetleaf plant response rating (0 to 100 scale) for velvetleaf, entry `C#CCNC(=O)c1cccc(NC(=O)c2sc(C(C)(C)C)nc2C)c1`
0

Notebook: pull reported Velvetleaf plant response rating (0 to 100 scale) for velvetleaf, entry `CCn1nc(C(C)(C)C)cc1C(=O)Nc1cc(C(N)=O)ccc1F`
0

* * *

Assignment: determine reported Crabgrass, Large plant response rating for the given compounds.
System: large crabgrass
Assay: Test A pre-/postemergence herbicide test
Type: in vivo, Digitaria sanguinalis
Conditions: Postemergence, 500 g ai/ha; 0 to 100 scale, 0 no effect, 100 complete control
Respond using a number only.

Need Crabgrass, Large plant response rating of CC(=O)c1cccc(NC(=O)c2cn(C(C)C)nc2C)c1 [Compound 179] , thanks.
10

Need Crabgrass, Large plant response rating of CCn1nc(C(C)(C)C)cc1C(=O)Nc1nc(OC)cc(SCF)n1 [Compound 167] , thanks.
0

Need Crabgrass, Large plant response rating of COC(=O)c1cccc(NC(=O)c2cc(C(C)(C)C)nn2C)n1 [Compound 312] , thanks.
0

Need Crabgrass, Large plant response rating of CCc1nn(C(C)(C)C)nc1C(=O)Nc1cccc(C(=O)NC2CC2)c1 [Compound 417] , thanks.
30

Need Crabgrass, Large plant response rating of CCn1nc(C(C)(C)C)cc1C(=O)Nc1nccc(OC)n1 [Compound 165] , thanks.
0

Need Crabgrass, Large plant response rating of CCn1nc(C(C)(C)C)cc1C(=O)Nc1cccc(C(=O)N2CC=CC2)c1 [Compound 286] , thanks.
20

* * *

System: corn
Assay: Test C pre-/postemergence herbicide test
Assay type: in vivo, Zea mays
Settings: 62 g ai/ha; preemergence; scale 0 to 100
Observation type: Plant response rating, Corn

Need Plant response rating, Corn of `CCn1nc(C(C)(C)C)cc1C(=O)Nc1cccc(OC(F)(F)C(F)F)c1` , thanks.
0

Need Plant response rating, Corn of CCN1N=C(C(C)(C)C)CC1C(=O)Nc1cc(C(=O)N2CCCC2)ccc1F (racemic) , thanks.
5

Need Plant response rating, Corn of `Cc1nn(C(C)(C)C)nc1C(=O)Nc1cccc(C(=O)N(C)C)c1` , thanks.
80

* * *

Tested on: morningglory
Experiment: Test B pre-/postemergence herbicide test
Format: in vivo, Ipomoea coccinea
Details: postemergence, 500 g ai/ha; scale 0 to 100, 0 is no effect, 100 is complete control
Observation type: Morningglory plant response rating

Need Morningglory plant response rating of `CCn1nc(C(C)(C)C)cc1C(=O)Nc1cc(C(=O)N2CCCC2)ccc1F` , thanks.
40

Need Morningglory plant response rating of `CCOc1ccc(F)c(NC(=O)c2cc(C(C)(C)C)nn2CC)c1` , thanks.
0

Need Morningglory plant response rating of CCN1N=C(C(C)(C)C)CC1C(=O)Nc1cc(C(=O)N2CCCC2)ccc1F (racemic) , thanks.
40

Need Morningglory plant response rating of `CCn1nc(C(C)(C)C)cc1C(=O)Nc1cncc(C(=O)NCC(F)(F)F)n1` , thanks.
40

Need Morningglory plant response rating of `CCn1nc(C(C)(C)C)cc1C(=O)Nc1nc(C(=O)N(C)C)ccc1F` , thanks.
20

Need Morningglory plant response rating of `CCCOC(=O)c1cc(NC(=O)c2cc(C(C)(C)C)nn2CC)c(F)cc1F` , thanks.
30

* * *

Assignment: determine reported Plant response rating, Rice for the given compounds.
System: rice
Assay: Test B pre-/postemergence herbicide test
Assay type: in vivo, Oryza sativa
Settings: preemergence, 125 g ai/ha; 0 to 100 scale, 0 is no effect, 100 is complete control
Respond using a number only.

Need Plant response rating, Rice of `CCn1nc(C(C)(C)C)cc1C(=O)Nc1cc(C#N)ccc1F` , thanks.
0

Need Plant response rating, Rice of `CCn1nc(C(C)(C)C)cc1C(=O)Nc1cccc(C(=O)NC2CC2)n1` , thanks.
10

Need Plant response rating, Rice of `C=CCOC(=O)c1cccc(NC(=O)c2cc(C(C)(C)C)nn2CC)c1C` , thanks.
0

Need Plant response rating, Rice of `CCn1nc(C(C)(C)C)cc1C(=O)Nc1cccc(C(=O)OC)c1` , thanks.
0

Need Plant response rating, Rice of `CC(=O)c1cc(NC(=O)c2cc(C(C)(C)C)nn2C)ccc1F` , thanks.
0

* * *

System: Surinam grass
Assay: Test C pre-/postemergence herbicide test
Format: in vivo, Urochloa decumbens
Conditions: postemergence; 62 g ai/ha; scale 0 to 100
Threshold rule: Plant response rating, Surinam Grass greater than or equal to 5 is t; below that, f.

Hello, I need to know if `CCn1nc(C(C)(C)C)cc1C(=O)Nc1cccc(C(C)=NO)c1` has measured Plant response rating, Surinam Grass not below 5. Thanks!
t

Hello, I need to know if `CCn1nc(C(C)(C)C)cc1C(=O)Nc1cccc(C#N)c1` has measured Plant response rating, Surinam Grass not below 5. Thanks!
f

Hello, I need to know if `CCn1nc(C(C)(C)C)cc1C(=O)Nc1cccc(C(=O)OC)c1` has measured Plant response rating, Surinam Grass not below 5. Thanks!
t

Hello, I need to know if `C=CCOC(=O)c1cccc(NC(=O)c2cc(C(C)(C)C)nn2CC)c1` has measured Plant response rating, Surinam Grass not below 5. Thanks!
t

Hello, I need to know if `C#CCOC(=O)c1cccc(NC(=O)c2cc(C(C)(C)C)nn2CC)c1` has measured Plant response rating, Surinam Grass not below 5. Thanks!
f

* * *

Test system: ducksalad
Test: Test C flooded paddy test
Type: in vivo, Heteranthera limosa
Details: 250 g ai/ha, scale of 0 to 100, 0 is no effect, 100 is complete control
Assignment: determine reported Ducksalad plant response rating for the given molecules.
Respond using a number only.

Notebook: pull reported Ducksalad plant response rating for ducksalad, entry `CCNC(=O)c1cccc(NC(=O)c2nn(C(C)C)nc2C)c1`
20

Notebook: pull reported Ducksalad plant response rating for ducksalad, entry `C#CCN(C)C(=O)c1ccnc(NC(=O)c2cc(C(C)(C)C)nn2CC)c1`
90

Notebook: pull reported Ducksalad plant response rating for ducksalad, entry `CCc1nn(C(C)(C)C)cc1C(=O)Nc1cccc(C(C)=NO)c1`
75

Notebook: pull reported Ducksalad plant response rating for ducksalad, entry `CCn1nc(C(C)(C)C)cc1C(=O)Nc1cccc(C(C)=NO)c1`
80

* * *

Assignment: determine reported Crabgrass, Large plant response rating for the given compounds.
System: large crabgrass
Experiment: Test B pre-/postemergence herbicide test
Assay type: in vivo, Digitaria sanguinalis
Details: postemergence, 500 g ai/ha; visual rating, scale 0 (no effect) to 100 (complete control)

Need Crabgrass, Large plant response rating of `CCc1nn(C(C)(C)C)cc1C(=O)Nc1cc(C(=O)NC)ccc1F` , thanks.
10

Need Crabgrass, Large plant response rating of `CCc1nn(C(C)(C)C)cc1C(=O)Nc1ccc(F)c(C(=O)N(C)C)c1` , thanks.
20

Need Crabgrass, Large plant response rating of `C#CCNC(=O)c1cccc(NC(=O)c2sc(C(C)(C)C)nc2CC)n1` , thanks.
0

Need Crabgrass, Large plant response rating of `Cc1nc(C(C)(C)C)sc1C(=O)Nc1cccc(C(=O)NCC(F)(F)F)c1` , thanks.
10

Need Crabgrass, Large plant response rating of `CCc1cn(C(C)(C)C)nc1C(=O)Nc1cc(C(=O)N(C)CC)ccn1` , thanks.
20

Need Crabgrass, Large plant response rating of `CCn1nc(C(C)(C)C)cc1C(=O)Nc1cccc(S(=O)(=O)C(F)(F)F)c1` , thanks.
30

Need Crabgrass, Large plant response rating of `CCc1nc(C(C)(C)C)sc1C(=O)Nc1cc(C(=O)N(C)CC)ccc1F` , thanks.
20

Need Crabgrass, Large plant response rating of `CCc1nn(C(C)(C)C)cc1C(=O)Nc1cccc(C(C)=NO)c1` , thanks.
10

Need Crabgrass, Large plant response rating of `C=CCNC(=O)c1cccc(NC(=O)c2sc(C(C)(C)C)nc2C)c1` , thanks.
10

Need Crabgrass, Large plant response rating of `CCn1nc(C(C)(C)C)cc1C(=O)Nc1cccc(C(=O)N(C)CC#N)n1` , thanks.
30
